Test system: Mycobacterium avium Va14(T)
Assay: Anti-mycobacterial activity of nitazoxanides, MIC in Middlebrook 7H9
Type: cell-based
Details: Middlebrook 7H9, 37° C.
quantity: Minimal Inhibitory Concentration, M. avium (µg/mL)
# output: bare number, implied unit µg/mL

# smiles str, recorded measurement
data = [
    ("O=C(Nc1nc(Cl)c([N+](=O)[O-])s1)c1ccccc1", 125),
    ("O=C(Nc1sc([N+](=O)[O-])cc1[N+](=O)[O-])c1cccc(C(F)(F)F)c1", 8),
    ("CCCCCC(=O)Nc1sc([N+](=O)[O-])cc1[N+](=O)[O-]", 63),
]

From here, focus on the item given below.
Query: Give reported Minimal Inhibitory Concentration, M. avium for `CCCCCC(=O)Nc1nc(Cl)c([N+](=O)[O-])s1` (Mycobacterium avium Va14(T))
Response: 125

----------
Test system: Mycobacterium tuberculosis
Test: microbe, parasite or virus in culture
Settings: isolate 234 (MDR-TB), agar proportion
quantity: MIC
Entry format: amount then unit.

Solved cases (3 shown):
# compound, MIC
data = [
    ("O=C(Nc1sc([N+](=O)[O-])cc1[N+](=O)[O-])c1ccccc1 [VPC16b1090]", "4000 µg/mL"),
    ("NNC(=O)c1ccncc1 [Isoniazid, reference compound]", "16000 µg/mL"),
    ("O=C(Nc1sc([N+](=O)[O-])cc1[N+](=O)[O-])c1ccoc1 [VPC16b1094]", "4000 µg/mL"),
]

From here, focus on the item given below.
Query: Please list MIC recorded for the compound CO[C@H]1/C=C/O[C@@]2(C)Oc3c(C)c(O)c4c(O)c(c(/C=N/N5CCN(C)CC5)c(O)c4c3C2=O)NC(=O)/C(C)=C\C=C\[C@H](C)[C@H](O)[C@@H](C)[C@@H](O)[C@@H](C)[C@H](OC(C)=O)[C@@H]1C [Rifampin, reference compound]
Response: 16000 µg/mL

----------
Mycobacterium avium Va14(T) data, read-out log10(MIC)
All values: base-10 log of MIC in µg/mL.

Solved cases (6 shown):
# compound, study system, log10(MIC)
measured = [
    ("O=C(Nc1sc([N+](=O)[O-])cc1[N+](=O)[O-])c1ccccc1", "Mycobacterium avium Va14(T)", 0.90),
    ("CC(=O)Oc1ccccc1C(=O)Nc1ncc([N+](=O)[O-])s1 [Nitazoxanide, reference compound]", "Mycobacterium avium Va14(T)", 2.40),
    ("O=C(Nc1nc(Cl)c([N+](=O)[O-])s1)c1cccc(C(F)(F)F)c1", "Mycobacterium avium Va14(T)", 2.40),
    ("O=C(Nc1sc([N+](=O)[O-])cc1[N+](=O)[O-])c1cc(C(F)(F)F)ccc1Cl", "Mycobacterium avium Va14(T)", 1.20),
    ("NCCOc1ccccc1C(=O)Nc1sc([N+](=O)[O-])cc1[N+](=O)[O-]", "Mycobacterium avium Va14(T)", 1.80),
    ("O=C(Nc1sc([N+](=O)[O-])cc1[N+](=O)[O-])c1ccoc1", "Mycobacterium avium Va14(T)", 1.20),
]

From here, focus on the item given below.
Query: Please list log10(MIC) recorded for the compound `O=C(Nc1sc([N+](=O)[O-])cc1[N+](=O)[O-])c1cccs1`
Response: 1.49
